The molecules listed here are annotated with their IC50.
System under test: Lck (Homo sapiens)
Construct: Kinases are expressed as either kinase domains or full length constructs; made in house
Sequence (P06239 whole entry, species assumed, the tested form may be a part): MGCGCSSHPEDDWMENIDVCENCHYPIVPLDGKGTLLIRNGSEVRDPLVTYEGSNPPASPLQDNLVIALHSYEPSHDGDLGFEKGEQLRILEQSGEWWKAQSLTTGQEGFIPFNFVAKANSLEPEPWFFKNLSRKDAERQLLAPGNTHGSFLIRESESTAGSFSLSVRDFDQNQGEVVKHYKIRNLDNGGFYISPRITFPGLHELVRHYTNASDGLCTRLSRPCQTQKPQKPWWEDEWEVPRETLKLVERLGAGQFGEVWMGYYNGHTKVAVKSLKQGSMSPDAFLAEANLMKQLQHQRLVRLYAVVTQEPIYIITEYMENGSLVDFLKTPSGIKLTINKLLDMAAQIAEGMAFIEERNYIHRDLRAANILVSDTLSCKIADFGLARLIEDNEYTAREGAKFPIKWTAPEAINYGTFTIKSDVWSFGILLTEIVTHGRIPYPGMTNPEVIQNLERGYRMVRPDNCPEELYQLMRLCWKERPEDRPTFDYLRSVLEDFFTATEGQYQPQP
Experiment: Kinase inhibition assay (33P transfer), Lck
Format: biochemical
Experimental setup: Table 3; read-out: Lck-1
Measurement name: IC50

In [3]: df
Out[3]:
                                    molecule   system_under_test  measurement_name    observed_value
 0  COCCOc1ccc(Nc2ncnc(Nc3cc(-c4ccco4)n[nH]3)n2)cc1OCCOC [Compound 328]  Lck (Homo sapiens)              IC50  0.856 to 5.13 µM
 1  COc1cccc(Nc2ncnc(-c3ccccc3)n2)c1 [Compound 13]  Lck (Homo sapiens)              IC50         > 16.2 µM
 2  COc1cc(Nc2ncnc(-n3c(Nc4cc(C)n[nH]4)nc4ccccc43)n2)cc(OC)c1OC [Compound 401]  Lck (Homo sapiens)              IC50  0.845 to 5.07 µM
 3  COc1cc(Nc2ncnc(Nc3cccc(Br)c3)n2)cc(OC)c1OC [Compound 75]  Lck (Homo sapiens)              IC50  0.925 to 5.55 µM
 4  COc1cc(Nc2ncnc(Nc3cccc(Oc4ccccc4)c3)n2)cc(OC)c1OC [Compound 105]  Lck (Homo sapiens)              IC50         > 10.1 µM
 5  COc1cc(Nc2ncnc(N[C@@H](CO)c3ccccc3)n2)cc(OC)c1OC [Compound 427]  Lck (Homo sapiens)              IC50         > 11.3 µM
 6  c1ccc(COc2cccc(Nc3ncnc(-c4cccs4)n3)c2)cc1 [Compound 361]  Lck (Homo sapiens)              IC50         > 12.5 µM
 7  COc1cc(Nc2ncnc(Nc3ccc(C)c(F)c3)n2)cc(OC)c1OC [Compound 300]  Lck (Homo sapiens)              IC50   1.04 to 6.23 µM
 8  COc1cc(Nc2ncnc(-n3ccc4ccccc43)n2)cc(OC)c1OC [Compound 185]  Lck (Homo sapiens)              IC50   6.36 to 9.27 µM
 9  O=c1[nH]c2ccccc2n1-c1ncnc(Nc2ccc(F)c(Cl)c2)n1 [Compound 459]  Lck (Homo sapiens)              IC50         > 12.6 µM
10  CC(=O)Nc1ccc(Nc2ncnc(-c3cccs3)n2)cc1 [Compound 355]  Lck (Homo sapiens)              IC50         > 14.5 µM
11  COc1cc(Nc2ncnc(Nc3cc(-c4ccc(Cl)cc4)n[nH]3)n2)cc(OC)c1OC [Compound 367]  Lck (Homo sapiens)              IC50  0.881 to 5.29 µM
12  CC(C)(C)OC(=O)NCCCNc1ncnc(-c2ccccc2)n1 [Compound 17]  Lck (Homo sapiens)              IC50         > 13.7 µM
13  COc1cc(Nc2ncnc(Nc3cc(C)c(O)cc3C)n2)cc(OC)c1OC [Compound 94]  Lck (Homo sapiens)              IC50         < 1.01 µM
14  O=c1[nH]c2ccccc2n1-c1ncnc(Nc2cccc(Cl)c2)n1 [Compound 457]  Lck (Homo sapiens)              IC50   10.3 to 13.3 µM
15  COc1cc(Nc2ncnc(Nc3cccc4cccnc34)n2)cc(OC)c1OC [Compound 97]  Lck (Homo sapiens)              IC50   8.65 to 11.1 µM
16  COCCOc1ccc(Nc2ncnc(-c3ccccc3)n2)cc1 [Compound 155]  Lck (Homo sapiens)              IC50           > 14 µM
17  COc1cc(Nc2ncnc(-n3ccc4cc(Cl)ccc43)n2)cc(OC)c1OC [Compound 198]  Lck (Homo sapiens)              IC50         > 10.9 µM
18  COc1ccc(Oc2ncnc(Nc3cc(OC)c(OC)c(OC)c3)n2)cc1 [Compound 174]  Lck (Homo sapiens)              IC50         > 11.7 µM
19  Nc1nc2ccccc2n1-c1ncnc(Nc2ccc(-c3cnco3)cc2)n1 [Compound 438]  Lck (Homo sapiens)              IC50   1.08 to 6.48 µM
20  Cc1cccc(Nc2ncnc(-n3cccc3)n2)c1C [Compound 281]  Lck (Homo sapiens)              IC50           > 17 µM
21  COc1cc(Nc2ncnc(Nc3cc(-c4ccco4)n[nH]3)n2)cc(OC)c1OC [Compound 308]  Lck (Homo sapiens)              IC50  0.977 to 5.86 µM
22  COc1cc(Nc2ncnc(Nc3cc(Cl)c(O)c(Cl)c3)n2)cc(OC)c1OC [Compound 68]  Lck (Homo sapiens)              IC50        < 0.913 µM
23  COc1cc(Nc2ncnc(-n3ccc4ccc(F)cc43)n2)cc(OC)c1OC [Compound 464]  Lck (Homo sapiens)              IC50   6.07 to 8.85 µM
24  COc1cc(Nc2ncnc(Nc3ccc(Cl)cc3F)n2)cc(OC)c1OC [Compound 306]  Lck (Homo sapiens)              IC50  0.986 to 5.91 µM
25  c1csc(-c2ncnc(Nc3ccncc3)n2)c1 [Compound 363]  Lck (Homo sapiens)              IC50         > 17.6 µM
26  FC(F)C(F)(F)Oc1cccc(Nc2ncnc(-c3ccnc(Cl)c3)n2)c1 [Compound 330]  Lck (Homo sapiens)              IC50         > 11.3 µM
27  COc1cc(Nc2ncnc(-n3c(Nc4ccc(C#N)cc4)nc4ccccc43)n2)cc(OC)c1OC [Compound 381]  Lck (Homo sapiens)              IC50    7.08 to 9.1 µM
